The measurements presented in this section are drawn from PubChem BioAssay AID1963840.

System: 695427-040-R-J1-PDC complex spheroid viability;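 further: spheroids exposed to compounds for seven days; 100% = DMSO vehicle control viability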
Assay: Anticancer human tumor 695427-040-R-J1-PDC patient-derived colon adenocarcinoma cell line growth inhibition [POLQ]
Details: second compound 0.0316 µM; first compound 0.01 µM; active compounds read low
Measured viability, T/C, listed per entry for reference.
MEASURED_PARAMETER: viability, T/C (%)

{"columns": ["COMPOUND", "MEASURED_PARAMETER", "EXPERIMENTAL_RESULT"],
 "data": [
  ["COc1cccc(OCCCN)c1-c1cc(Nc2cnc(C#N)cn2)n[nH]1 + COC1C(OC(N)=O)C(O)C(Oc2ccc3c(O)c(NC(=O)c4ccc(O)c(CC=C(C)C)c4)c(=O)oc3c2C)OC1(C)C", "viability, T/C", 94.2],
  ["CC[C@@]1(O)C(=O)OCc2c1cc1n(c2=O)Cc2cc3c(CN(C)C)c(O)ccc3nc2-1 + Cc1cccc(N(C)C(=O)C2C(O)CCN2c2nc(C)cc(C(F)(F)F)c2C#N)c1", "viability, T/C", 94.5],
  ["CCc1c2c(nc3ccc(O)cc13)-c1cc3c(c(=O)n1C2)COC(=O)[C@]3(O)CC + Cc1cccc(N(C)C(=O)C2C(O)CCN2c2nc(C)cc(C(F)(F)F)c2C#N)c1", "viability, T/C", 90.1],
  ["Cn1ncnc1[C@H]1c2n[nH]c(=O)c3cc(F)cc(c23)N[C@@H]1c1ccc(F)cc1 + COC1C(OC(N)=O)C(O)C(Oc2ccc3c(O)c(NC(=O)c4ccc(O)c(CC=C(C)C)c4)c(=O)oc3c2C)OC1(C)C", "viability, T/C", 105]
]}
